target: UniProt:P29476
Sequence (P29476 whole entry): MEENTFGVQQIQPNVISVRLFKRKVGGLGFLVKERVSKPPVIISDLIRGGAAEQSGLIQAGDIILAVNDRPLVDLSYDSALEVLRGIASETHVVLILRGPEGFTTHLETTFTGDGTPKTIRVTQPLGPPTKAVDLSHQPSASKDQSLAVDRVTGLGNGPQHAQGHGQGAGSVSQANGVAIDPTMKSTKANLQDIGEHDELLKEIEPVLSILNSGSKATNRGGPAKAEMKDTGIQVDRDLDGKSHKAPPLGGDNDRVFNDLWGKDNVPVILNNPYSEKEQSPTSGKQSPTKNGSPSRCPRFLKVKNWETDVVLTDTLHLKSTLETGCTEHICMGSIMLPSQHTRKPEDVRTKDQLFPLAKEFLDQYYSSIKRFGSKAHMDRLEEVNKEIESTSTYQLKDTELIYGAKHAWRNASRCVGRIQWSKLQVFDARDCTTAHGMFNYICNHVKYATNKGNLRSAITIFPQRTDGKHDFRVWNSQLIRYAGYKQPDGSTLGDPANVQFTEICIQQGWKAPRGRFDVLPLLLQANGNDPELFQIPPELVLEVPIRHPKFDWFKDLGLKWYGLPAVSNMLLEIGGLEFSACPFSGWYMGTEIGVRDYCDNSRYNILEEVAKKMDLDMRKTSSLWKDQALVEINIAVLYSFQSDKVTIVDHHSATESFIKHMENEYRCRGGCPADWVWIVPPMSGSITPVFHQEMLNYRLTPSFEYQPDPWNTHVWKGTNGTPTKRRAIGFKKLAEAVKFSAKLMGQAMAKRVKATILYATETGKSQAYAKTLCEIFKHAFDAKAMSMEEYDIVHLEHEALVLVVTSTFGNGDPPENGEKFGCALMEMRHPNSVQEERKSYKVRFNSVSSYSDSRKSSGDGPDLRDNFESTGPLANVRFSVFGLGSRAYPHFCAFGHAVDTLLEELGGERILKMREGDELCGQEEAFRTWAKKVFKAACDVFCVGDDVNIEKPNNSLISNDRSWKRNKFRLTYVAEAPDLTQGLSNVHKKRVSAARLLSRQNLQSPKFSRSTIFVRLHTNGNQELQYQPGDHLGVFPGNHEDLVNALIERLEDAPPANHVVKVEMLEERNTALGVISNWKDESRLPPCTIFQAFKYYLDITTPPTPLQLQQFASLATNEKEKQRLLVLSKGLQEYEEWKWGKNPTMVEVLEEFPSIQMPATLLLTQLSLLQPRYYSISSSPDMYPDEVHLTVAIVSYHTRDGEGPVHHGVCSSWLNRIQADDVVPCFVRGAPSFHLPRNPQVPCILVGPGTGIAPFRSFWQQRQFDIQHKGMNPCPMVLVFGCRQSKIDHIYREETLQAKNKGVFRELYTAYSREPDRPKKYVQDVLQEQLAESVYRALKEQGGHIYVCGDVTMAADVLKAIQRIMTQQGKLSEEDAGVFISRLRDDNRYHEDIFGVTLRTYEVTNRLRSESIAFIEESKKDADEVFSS
pKi: −log10 of the molar value.
result_type: pKi

Give the measured pKi of `Fc1cccc(CCN2CCN(c3ccnc(-n4ccnc4)n3)CC2)c1` . ~5.30
